Molecular target: pT7_6His-AlfaTag-HOXD13 (human, UniProt P35453 263-343)
Sequence (P35453 263-343): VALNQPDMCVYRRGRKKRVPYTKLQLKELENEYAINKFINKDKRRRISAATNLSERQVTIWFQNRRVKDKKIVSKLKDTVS
Test: PADIT-seq
Conditions: dsDNA, one strand shown
T if binding signal is below 0.5 log2FC. F if not; exact matches included in F.

{"Biosequence": "CTCGAGGATATCAAGATCTGGCCTCGGCGTTTTACCAGGAACCTCTAGCTAGCCGACTCACTATAGGGATAATCGCCCTGAGCAAAGACC", "Class Name": "T"}
{"Biosequence": "CTCGAGGATATCAAGATCTGGCCTCGGCACGATAAAAGGAACCTCTAGCTAGCCGACTCACTATAGGGATAATCGCCCTGAGCAAAGACC", "Class Name": "F"}
{"Biosequence": "CTCGAGGATATCAAGATCTGGCCTCGGCTGCTTAAAAGGAACCTCTAGCTAGCCGACTCACTATAGGGATAATCGCCCTGAGCAAAGACC", "Class Name": "F"}
{"Biosequence": "CTCGAGGATATCAAGATCTGGCCTCGGCCGCAGTCGCGGAACCTCTAGCTAGCCGACTCACTATAGGGATAATCGCCCTGAGCAAAGACC", "Class Name": "T"}
{"Biosequence": "CTCGAGGATATCAAGATCTGGCCTCGGCATTTTAACCGGAACCTCTAGCTAGCCGACTCACTATAGGGATAATCGCCCTGAGCAAAGACC", "Class Name": "F"}
{"Biosequence": "CTCGAGGATATCAAGATCTGGCCTCGGCGCGTGGCCAGGAACCTCTAGCTAGCCGACTCACTATAGGGATAATCGCCCTGAGCAAAGACC", "Class Name": "T"}
{"Biosequence": "CTCGAGGATATCAAGATCTGGCCTCGGCGTTTTATGTGGAACCTCTAGCTAGCCGACTCACTATAGGGATAATCGCCCTGAGCAAAGACC", "Class Name": "F"}
{"Biosequence": "CTCGAGGATATCAAGATCTGGCCTCGGCTTACCACGCGGAACCTCTAGCTAGCCGACTCACTATAGGGATAATCGCCCTGAGCAAAGACC", "Class Name": "T"}
{"Biosequence": "CTCGAGGATATCAAGATCTGGCCTCGGCCGCTTAAAAGGAACCTCTAGCTAGCCGACTCACTATAGGGATAATCGCCCTGAGCAAAGACC", "Class Name": "T"}
{"Biosequence": "CTCGAGGATATCAAGATCTGGCCTCGGCTCGTGGGCGGGAACCTCTAGCTAGCCGACTCACTATAGGGATAATCGCCCTGAGCAAAGACC", "Class Name": "T"}
{"Biosequence": "CTCGAGGATATCAAGATCTGGCCTCGGCCTTTTAGAGGGAACCTCTAGCTAGCCGACTCACTATAGGGATAATCGCCCTGAGCAAAGACC", "Class Name": "F"}
{"Biosequence": "CTCGAGGATATCAAGATCTGGCCTCGGCACGCTAAAAGGAACCTCTAGCTAGCCGACTCACTATAGGGATAATCGCCCTGAGCAAAGACC", "Class Name": "T"}
{"Biosequence": "CTCGAGGATATCAAGATCTGGCCTCGGCGTTTTAACGGGAACCTCTAGCTAGCCGACTCACTATAGGGATAATCGCCCTGAGCAAAGACC", "Class Name": "F"}
{"Biosequence": "CTCGAGGATATCAAGATCTGGCCTCGGCATTTTACGTGGAACCTCTAGCTAGCCGACTCACTATAGGGATAATCGCCCTGAGCAAAGACC", "Class Name": "F"}
{"Biosequence": "CTCGAGGATATCAAGATCTGGCCTCGGCTTTTTACCAGGAACCTCTAGCTAGCCGACTCACTATAGGGATAATCGCCCTGAGCAAAGACC", "Class Name": "F"}
{"Biosequence": "CTCGAGGATATCAAGATCTGGCCTCGGCCGCCCATGCGGAACCTCTAGCTAGCCGACTCACTATAGGGATAATCGCCCTGAGCAAAGACC", "Class Name": "T"}
{"Biosequence": "CTCGAGGATATCAAGATCTGGCCTCGGCTTTTTAGGAGGAACCTCTAGCTAGCCGACTCACTATAGGGATAATCGCCCTGAGCAAAGACC", "Class Name": "F"}
{"Biosequence": "CTCGAGGATATCAAGATCTGGCCTCGGCTGGTTAAAAGGAACCTCTAGCTAGCCGACTCACTATAGGGATAATCGCCCTGAGCAAAGACC", "Class Name": "F"}
{"Biosequence": "CTCGAGGATATCAAGATCTGGCCTCGGCGCCCTAAAAGGAACCTCTAGCTAGCCGACTCACTATAGGGATAATCGCCCTGAGCAAAGACC", "Class Name": "T"}
{"Biosequence": "CTCGAGGATATCAAGATCTGGCCTCGGCTTTTTAGGCGGAACCTCTAGCTAGCCGACTCACTATAGGGATAATCGCCCTGAGCAAAGACC", "Class Name": "T"}
{"Biosequence": "CTCGAGGATATCAAGATCTGGCCTCGGCACGTGGGCGGGAACCTCTAGCTAGCCGACTCACTATAGGGATAATCGCCCTGAGCAAAGACC", "Class Name": "T"}
{"Biosequence": "CTCGAGGATATCAAGATCTGGCCTCGGCCTTTTATAGGGAACCTCTAGCTAGCCGACTCACTATAGGGATAATCGCCCTGAGCAAAGACC", "Class Name": "F"}
{"Biosequence": "CTCGAGGATATCAAGATCTGGCCTCGGCGTTTTACAAGGAACCTCTAGCTAGCCGACTCACTATAGGGATAATCGCCCTGAGCAAAGACC", "Class Name": "F"}
{"Biosequence": "CTCGAGGATATCAAGATCTGGCCTCGGCATTTTAGAAGGAACCTCTAGCTAGCCGACTCACTATAGGGATAATCGCCCTGAGCAAAGACC", "Class Name": "T"}
{"Biosequence": "CTCGAGGATATCAAGATCTGGCCTCGGCGCGGTAGCGGGAACCTCTAGCTAGCCGACTCACTATAGGGATAATCGCCCTGAGCAAAGACC", "Class Name": "T"}
{"Biosequence": "CTCGAGGATATCAAGATCTGGCCTCGGCGGTCTAAAAGGAACCTCTAGCTAGCCGACTCACTATAGGGATAATCGCCCTGAGCAAAGACC", "Class Name": "T"}
